ASSAY DETAILS: Cytotoxicity against African green monkey Vero cells assessed as cell viability at 125 ug/ml by MTT assay
Type: cell-based
ASSAY CONDITIONS: chlorocebus sabaeus, read-out: Activity
Listed next: entries and their corresponding viability at 125 ug/ml.

Reference set, count: 3
{"columns": ["MOLECULE", "viability at 125 ug/ml"],
 "data": [
  ["COc1ccc(C2SCC(=O)N2CCN2CCOCC2)cc1 (configuration not stated)", "100%"],
  ["Cc1ccc(C2SCC(=O)N2CCN2CCOCC2)cc1 (configuration not stated)", "87%"],
  ["O=C1CSC(c2ccccc2[N+](=O)[O-])N1CCN1CCOCC1 (configuration not stated)", "98%"]
]}

What measured viability at 125 ug/ml goes with O=C1CSC(c2cccc([N+](=O)[O-])c2)N1CCN1CCOCC1 (configuration not stated) ?
100%

Request: O=C1CSC(c2ccc(Cl)cc2)N1CCN1CCOCC1 (configuration not stated)
87%

// repeat for O=C1CSC(c2ccc(F)cc2)N1CCN1CCOCC1 (configuration not stated) and report
100%

Another molecule to look at: O=C1CSC(c2ccc(O)cc2)N1CCN1CCOCC1 (configuration not stated)
83%

Origin of values: ChEMBL document CHEMBL3822395
